These entries and their values trace back to patent US20150158934A1.

Assignment: determine reported K50 (50% binding concentration; column head reads KD) for the given binders.
molecular target: gp140UG37 (subtype A), gp140 envelope glycoprotein from the HIV-1 group M A-clade isolate 92UG037 (HIV-1); experiment: binding of purified VHH to gp140 92UG (method not given)
The figure you give is taken to be in µg/mL; do not add the unit.

Q: Look up and report measured K50 (50% binding concentration; column head reads KD) for this entry: L8Cj3 Mutant 5 (VHH) VHH: EVQLVESGGGLVQAGGFLRLSCELRGSIFNQYAMAWFRQAPGKEREFVAGMGAVPHYGEFVKGRFTISRDNAKSTVYLQMSSLKPEDTAVYFCARSKSTYISYNSNGYDYWGRGTQVTVSS
Result: 0.028

Q: State its K50 (50% binding concentration; column head reads KD) for this binder: L8Cj3 Mutant 2 (VHH) VHH: EVQLVESGGGLVQAGGFLRLSCELRGSIFSQYAMAWFRQAPGKEREFVAGMGAVPHYGEFVKGRFTISRDNAKSTVYLQMSSLKPEDTAIYFCARSKSTYISYNSNGYDYWGRGTQVTVSS
Result: 0.04

Q: // Input: L8Cj3 Mutant 7 (VHH) VHH: EVQLVESGGGLVQAGGFLRLSCELRGSIFNQYAMAWFRQAPGKEREFVAGMGAVPHYGEFVKGRFTISRDNAKSTVYLQMSSLKPEDTAIYFCAASKSTYISYNSNGYDYWGRGTQVTVSS . Output its K50 (50% binding concentration; column head reads KD) only.
Result: 0.95

Q: Supply measured K50 (50% binding concentration; column head reads KD) of L8Cj3 Mutant 9 (VHH) VHH: EVQLVESGGGLVQAGGFLRLSCELRGSIFNQYAMAWFRQAPGKEREFVAGMGAVPHYGEFVKGRFTISRDNAKSTVYLQMSSLKPEDTAIYFCARSKSTYISYASNGYDYWGRGTQVTVSS in your reply.
Result: 0.022

Q: Please look at this binder and report its K50 (50% binding concentration; column head reads KD): L8Cj3 Mutant 1 (VHH) VHH: EVQLVESGGGLVQAGGFLRLSCAASGSIFNQYAMAWFRQAPGKEREFVAGMGAVPHYGEFVKGRFTISRDNAKSTVYLQMSSLKPEDTAIYFCARSKSTYISYNSNGYDYWGRGTQVTVSS
Result: 0.058

Q: Identify measured K50 (50% binding concentration; column head reads KD) corresponding to L8Cj3 Mutant 12 (VHH) VHH: EVQLVESGGGLVQAGGFLRLSCIYRGSIFNQYAMAWFRQAPGKEREFVAGMGAVPHYGEFVKGRFTISRDNAKSTVYLQMSSLKPEDTAIYFCARSKSTYISYNSNGYDYWGRGTQVTVSS
Result: 0.042

Q: Give me measured K50 (50% binding concentration; column head reads KD), please, for this binder: L8Cj3 Mutant 10 (VHH) VHH: EVQLVESGGGLVQAGGFLRLSCELRGSIFNQYAMAWFRQAPGKEREFVAGMGAVPHYGEFVKGRFTISRDNAKSTVYLQMSSLKPEDTAIYFCARSKSTYISYNSNEYDYWGRGTQVTVSS
Result: 0.086

Q: Tell me its K50 (50% binding concentration; column head reads KD) given L8i5 (VHH) VHH: EVQLVESGGGLVQAGGFLRLSCEPRGSIFNQYAMAWFRQAPGKEREFVAGMGAVAHYGEFVKGRFTISRDNAKNTAYLQMNSLKPEDTAIYFCARSKSTYISYNSNGYDYWGRGTQVTVSS as the entry.
Result: 0.048
